Each recorded value in this set is attributed to patent US20240101635A1.

Experimental System: T1, biotinylated recombinant human Fc(gamma) receptor I (human, UniProt P12314 16-288, biotinylated (site not stated))
T1 construct: Bought reagent, used as surrogate for canine/feline Fc(gamma)RI; also called rhFc(gamma) receptor I; Fc(gamma)RI
T1 sequence (P12314 16-288 limits assumed): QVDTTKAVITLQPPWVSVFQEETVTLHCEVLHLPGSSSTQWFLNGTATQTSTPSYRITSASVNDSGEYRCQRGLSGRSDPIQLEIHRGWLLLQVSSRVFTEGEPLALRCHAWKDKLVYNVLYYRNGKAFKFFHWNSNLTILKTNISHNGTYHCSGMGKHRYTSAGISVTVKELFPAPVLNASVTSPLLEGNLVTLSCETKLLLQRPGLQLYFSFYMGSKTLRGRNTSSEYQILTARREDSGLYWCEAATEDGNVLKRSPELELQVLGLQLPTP
Test Details: ELISA, fusion protein coated, biotinylated rhFc(gamma)RI at 3000 ng/mL, pH 7.4
Property: OD450 nm at a Fc(gamma)RI concentration of 3000 (ng/mL) (OD450)
Give just the numeric value; OD450 need not be written.

Problem: Query OD450 nm at a Fc(gamma)RI concentration of 3000 (ng/mL) for insulin-Fc fusion protein of SEQ ID NO: 32 (Fc fusion, homodimer; also called 218d) FVNQHLCGSHLVEALELVCGERGFHYGGGGGGSGGGGGIVEQCCTSTCSLDQLENYCGGGGGQGGGGQGGGGQGGGGGDCPKCPAPEMLGGPSVFIFPPKPKDTLLIARTPEVTCVVVDLDPEDPEVQISWFVDGKQMQTAKTQPREEQFNGTYRVVSVLPIGHQDWLKGKQFTCKVNNKALPSPIERTISKARGQAHQPSVYVLPPSREELSKNTVSLTCLIKDFFPPDIDVEWQSNGQQEPESKYRTTPPQLDEDGSYFLYSKLSVDKSRWQRGDTFICAVMHEALHNHYTQESLSHSPG
Solution: 0.368
